Hello, the source for this data is the supplement of paper PMC11061612, in case you need it.

- System: MFE-319 (Endometrial Carcinoma)
- Assay summary: Bliss excess, mean over the matrix (fraction); higher = more synergy
Observed property: Bliss excess
Numbers only.

Examples with answers:
Compound | Observed property | Val
CC1(C)CCC(CN2CCN(c3ccc(C(=O)NS(=O)(=O)c4ccc(NCC5CCOCC5)c([N+](=O)[O-])c4)c(Oc4cnc5[nH]ccc5c4)c3)CC2)=C(c2ccc(Cl)cc2)C1 [Venetoclax] + Cn1cnc2c(F)c(Nc3ccc(Br)cc3Cl)c(C(=O)NOCCO)cc21 [Selumetinib] (first compound max 1 µM, 7x7, partner max 3 µM) | Bliss excess | -0.0034
CCN(CCO)CCCOc1ccc2c(Nc3cc(CC(=O)Nc4cccc(F)c4)[nH]n3)ncnc2c1 [AZD2811] + C[C@@H]1COCCN1C2=NC(=NC(=C2)C3(CC3)[S@](=N)(=O)C)C4=C5C=CNC5=NC=C4 [AZD6738] (first compound max 1 µM, 7x7, partner max 10 µM) | Bliss excess | -0.0472
CC1(C)CCC(CN2CCN(c3ccc(C(=O)NS(=O)(=O)c4ccc(NCC5CCOCC5)c([N+](=O)[O-])c4)c(Oc4cnc5[nH]ccc5c4)c3)CC2)=C(c2ccc(Cl)cc2)C1 [Venetoclax] + C[C@@H]1COCCN1C2=NC(=NC(=C2)C3(CC3)[S@](=N)(=O)C)C4=C5C=CNC5=NC=C4 [AZD6738] (first compound max 1 µM, 7x7, partner max 10 µM) | Bliss excess | -0.0494

Give me Bliss excess for each of these compounds, listed below.
1. Cc1cc2ncnn2cc1Nc1ncc2c(n1)n(C1CCOCC1)c(=O)n2C [AZD7648] + CN(C)CCCOc1ccc(-c2ccc3ncc4c(c3c2)n(C2CCOCC2)c(=O)n4C)cn1 [AZD0156] (first compound max 10 µM, 7x7, partner max 1 µM)
2. Cc1cc2ncnn2cc1Nc1ncc2c(n1)n(C1CCOCC1)c(=O)n2C [AZD7648] + CCN(CCO)CCCOc1ccc2c(Nc3cc(CC(=O)Nc4cccc(F)c4)[nH]n3)ncnc2c1 [AZD2811] (first compound max 10 µM, 7x7, partner max 1 µM)
3. CC(=O)c1c(C)c2cnc(Nc3ccc(N4CCNCC4)cn3)nc2n(C2CCCC2)c1=O [Palbociclib] + Cc1c2c(nn1C)CSCc1cc(n(C)n1)CSc1cc(c3ccccc3c1)OCCCc1c(C(=O)O)n(C)c3c-2c(Cl)ccc13 [AZD5991] (first compound max 10 µM, 7x7, partner max 1 µM)

[0.0572, 0.0419, -0.111]

Given the entry CCN(CCO)CCCOc1ccc2c(Nc3cc(CC(=O)Nc4cccc(F)c4)[nH]n3)ncnc2c1 [AZD2811] + O=C(c1cc(Cc2n[nH]c(=O)c3ccccc23)ccc1F)N1CCN(C(=O)C2CC2)CC1 [Olaparib] (first compound max 1 µM, 7x7, partner max 10 µM) , report its measured Bliss excess.
0.0376

====

- System: NCI-N87 (Gastric Carcinoma)
- Assay summary: combination Emax (second highest fraction inhibited in the dose matrix, 72 h); higher = more inhibition; extreme values may be limits of the assay
Decision: combination Emax >= 0.4 yields True, all other cases yield False.

Look over these answered cases.
Compound | Answer label
COc1cc2c(cc1OCCCCCOc1cc3c(cc1OC)C(=O)N1C=C(C)C[C@H]1C=N3)N=C[C@@H]1CC(C)=CN1C2=O [SG3199] + O=C(c1cc(Cc2n[nH]c(=O)c3ccccc23)ccc1F)N1CCN(C(=O)C2CC2)CC1 [Olaparib] (first compound max 0.001 µM, 7x7, partner max 10 µM) | False
CN(C)CCCOc1ccc(-c2ccc3ncc4c(c3c2)n(C2CCOCC2)c(=O)n4C)cn1 [AZD0156] + C=CCn1c(=O)c2cnc(Nc3ccc(N4CCN(C)CC4)cc3)nc2n1-c1cccc(C(C)(C)O)n1 [AZD1775] (first compound max 1 µM, partner max 1 µM) | True

Determine whether this compound has combination Emax no lower than 0.4: Cc1cc2ncnn2cc1Nc1ncc2c(n1)n(C1CCOCC1)c(=O)n2C [AZD7648] + CCN(CCO)CCCOc1ccc2c(Nc3cc(CC(=O)Nc4cccc(F)c4)[nH]n3)ncnc2c1 [AZD2811] (first compound max 10 µM, 7x7, partner max 1 µM)
True

Determine whether this compound has combination Emax no lower than 0.4: CN(C)CCCOc1ccc(-c2ccc3ncc4c(c3c2)n(C2CCOCC2)c(=O)n4C)cn1 [AZD0156] + O=C(c1cc(Cc2n[nH]c(=O)c3ccccc23)ccc1F)N1CCN(C(=O)C2CC2)CC1 [Olaparib] (first compound max 3 µM, partner max 3 µM)
False

Determine whether this compound has combination Emax no lower than 0.4: C[C@@H]1COCCN1c1cc(C2([S@](C)(=N)=O)CC2)nc(-c2ccnc3[nH]ccc23)n1 [AZD6738] + C1CC(C1)(C(=O)[O-])C(=O)[O-].N.N.[Pt+2] [Carboplatin] (first compound max 10 µM, 7x7, partner max 10 µM)
True

Determine whether this compound has combination Emax no lower than 0.4: CC1(C)CCC(CN2CCN(c3ccc(C(=O)NS(=O)(=O)c4ccc(NCC5CCOCC5)c([N+](=O)[O-])c4)c(Oc4cnc5[nH]ccc5c4)c3)CC2)=C(c2ccc(Cl)cc2)C1 [Venetoclax] + COc1cc(Nc2ncc3c(n2)-c2ccc(Cl)cc2C(c2c(F)cccc2OC)=NC3)ccc1C(=O)O [Alisertib] (first compound max 1 µM, 7x7, partner max 10 µM)
False

Determine whether this compound has combination Emax no lower than 0.4: Cc1c2c(nn1C)CSCc1cc(n(C)n1)CSc1cc(c3ccccc3c1)OCCCc1c(C(=O)O)n(C)c3c-2c(Cl)ccc13 [AZD5991] + Cn1cnc2c(F)c(Nc3ccc(Br)cc3Cl)c(C(=O)NOCCO)cc21 [Selumetinib] (first compound max 1 µM, 7x7, partner max 3 µM)
True

====

- Tested on: NCI-H2347 (Lung Adenocarcinoma)
- Assay summary: Bliss excess, mean over the matrix (fraction); higher = more synergy
Decision: Bliss excess >= -0.05 yields 1.0, all other cases yield 0.0.

Look over these answered cases.
Compound | Answer label
CC(=O)c1c(C)c2cnc(Nc3ccc(N4CCNCC4)cn3)nc2n(C2CCCC2)c1=O [Palbociclib] + Cn1cnc2c(F)c(Nc3ccc(Br)cc3Cl)c(C(=O)NOCCO)cc21 [Selumetinib] (first compound max 10 µM, 7x7, partner max 10 µM) | 1.0
CN(CCO)CC[C@H](CSc1ccccc1)Nc1ccc(S(=O)(=O)NC(=O)c2ccc(N3CCC([C@@H](O)c4ccccc4-c4ccc(Cl)cc4)CC3)cc2)cc1S(=O)(=O)C(F)(F)F [AZD4320] + C=CCn1c(=O)c2cnc(Nc3ccc(N4CCN(C)CC4)cc3)nc2n1-c1cccc(C(C)(C)O)n1 [AZD1775] (first compound max 1 µM, partner max 1 µM) | 1.0

Determine whether this compound has Bliss excess no lower than -0.05: COc1cccc(OCCCN)c1-c1cc(Nc2cnc(C#N)cn2)n[nH]1 [Prexasertib] + C=CCn1c(=O)c2cnc(Nc3ccc(N4CCN(C)CC4)cc3)nc2n1-c1cccc(C(C)(C)O)n1 [AZD1775] (first compound max 1 µM, partner max 1 µM)
0.0

Determine whether this compound has Bliss excess no lower than -0.05: Cn1cnc2c(F)c(Nc3ccc(Br)cc3Cl)c(C(=O)NOCCO)cc21 [Selumetinib] + CC(C)n1c(=O)n(C)c2cnc3cc(F)c(-c4ccc(OCCCN5CCCCC5)nc4)cc3c21 [AZD1390] (first compound max 10 µM, 7x7, partner max 0.3 µM)
1.0

Determine whether this compound has Bliss excess no lower than -0.05: Cc1c2c(nn1C)CSCc1cc(n(C)n1)CSc1cc(c3ccccc3c1)OCCCc1c(C(=O)O)n(C)c3c-2c(Cl)ccc13 [AZD5991] + CCN(CCO)CCCOc1ccc2c(Nc3cc(CC(=O)Nc4cccc(F)c4)[nH]n3)ncnc2c1 [AZD2811] (first compound max 1 µM, 7x7, partner max 1 µM)
1.0

Determine whether this compound has Bliss excess no lower than -0.05: CCN(CCO)CCCOc1ccc2c(Nc3cc(CC(=O)Nc4cccc(F)c4)[nH]n3)ncnc2c1 [AZD2811] + C=CCn1c(=O)c2cnc(Nc3ccc(N4CCN(C)CC4)cc3)nc2n1-c1cccc(C(C)(C)O)n1 [AZD1775] (first compound max 1 µM, partner max 1 µM)
1.0

====

- System: NCI-H1573 (Lung Adenocarcinoma)
- Assay summary: Bliss excess, mean over the matrix (fraction); higher = more synergy
Observed property: Bliss excess
One number for each entry.

Examples with answers:
Compound | Val
CC1(C)CCC(CN2CCN(c3ccc(C(=O)NS(=O)(=O)c4ccc(NCC5CCOCC5)c([N+](=O)[O-])c4)c(Oc4cnc5[nH]ccc5c4)c3)CC2)=C(c2ccc(Cl)cc2)C1 [Venetoclax] + Cc1cc2ncnn2cc1Nc1ncc2c(n1)n(C1CCOCC1)c(=O)n2C [AZD7648] (first compound max 1 µM, 7x7, partner max 10 µM) | -0.0242
CN(C)CCCOc1ccc(-c2ccc3ncc4c(c3c2)n(C2CCOCC2)c(=O)n4C)cn1 [AZD0156] + C=CCn1c(=O)c2cnc(Nc3ccc(N4CCN(C)CC4)cc3)nc2n1-c1cccc(C(C)(C)O)n1 [AZD1775] (first compound max 1 µM, partner max 1 µM) | -0.0537

As a next step, examine the compound that follows.
Given the entry COc1nnc2ccc(N3CCC(c4ccc(OCCN5CCN(C)C(=O)[C@H]5C)cc4)CC3)nn12 [AZD5153] + CC1(C)CCC(CN2CCN(c3ccc(C(=O)NS(=O)(=O)c4ccc(NCC5CCOCC5)c([N+](=O)[O-])c4)c(Oc4cnc5[nH]ccc5c4)c3)CC2)=C(c2ccc(Cl)cc2)C1 [Venetoclax] (first compound max 1 µM, 7x7, partner max 1 µM) , report its measured Bliss excess.
-0.0885
